B1: TPR t1 (parent)
chain: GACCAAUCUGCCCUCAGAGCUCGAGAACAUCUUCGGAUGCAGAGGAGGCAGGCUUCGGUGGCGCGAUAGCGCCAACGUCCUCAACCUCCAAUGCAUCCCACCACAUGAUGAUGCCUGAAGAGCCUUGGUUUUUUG

- Variants of: B1
- method_summary: polymerase ribozyme fitness, log enrichment relative to wild type (log ratio); higher = more active; in vitro selection for triplet polymerase activity
Quick list: polymerase ribozyme fitness (log ratio) per entry.
# output: bare number, no unit

Consider the following illustrative entries.
# var, polymerase ribozyme fitness (log ratio)
data = [
    ("A29C G44C U92C", -5.1),
    ("G69U G110A U125A G127A", -0.849),
    ("U7G C12U C15A C22G C104U", -3.41),
    ("A75G C97U U131A", -0.00214),
    ("U33G G39A C72G A84G A111U", -6.45),
]

GET /values?readout=polymerase ribozyme fitness (log ratio)&item= A2G A18C A91C -2.93

Further, for C115U U133A ? -0.794

Param item: A74U G113A U129A -1.94

Same thing, different variant: C11U A41G C56G C124A 1.04

Try this variant too: C89U A105U -2.8
